- procedure_text: in vivo
- condition_context: FVB, mouse, systemic (abdominal vein) plasma, oral, 10 mg/kg

molecule	concentration at 10 min / nM
CC(=O)O[C@H]1C(=O)[C@@]2(C)[C@H]([C@H](OC(=O)c3ccccc3)[C@]3(O)C[C@H](OC(=O)[C@H](O)[C@@H](NC(=O)c4ccccc4)c4ccccc4)C(C)=C1C3(C)C)[C@]1(OC(C)=O)CO[C@@H]1C[C@@H]2O [paclitaxel]	218

====

- procedure_text: in vivo
- condition_context: FVB, mouse, systemic (abdominal vein) plasma, po, 20 mg/kg

smiles_input	Tmax [h]
CC(=O)O[C@H]1C(=O)[C@@]2(C)[C@H]([C@H](OC(=O)c3ccccc3)[C@]3(O)C[C@H](OC(=O)[C@H](O)[C@@H](NC(=O)c4ccccc4)c4ccccc4)C(C)=C1C3(C)C)[C@]1(OC(C)=O)CO[C@@H]1C[C@@H]2O	1
